Cited source: patent US20180371066A1

- targetUnderTest: T1, human tau (human, UniProt P10636 2-60)
- T1 construct: also called soluble human tau; human tau protein
- T1 sequence (P10636 2-60 limits assumed): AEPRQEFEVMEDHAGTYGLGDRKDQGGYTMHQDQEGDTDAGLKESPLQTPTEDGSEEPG
- protocolSummary: competition ELISA on plate-coated human tau against biotinylated HJ8.5; IC50 normalised to chimeric HJ8.5; column C2N Run 2

>  <binder>
VH1/VK2 humanized anti-tau antibody (C2N-8E12) (antibody, human IgG4 S228P, kappa, V domains shown, Humanized recombinant IgG4 with S241P hinge mutation, human kappa light chain; also called C2N-8EI2) VH: EVKVVESGGGLVQPGGSMKLSCVVSGFTFSNYWVNWVRQAPGKGLEWVAQIRLKSDNYATHYEESVKGRFTISRDDSKSSVYLQMNNLRAEDSGIYYCTNWEDYWGQGTTVTVSS VL: DIVLTQSPDSLAVSLGERATISCRASQSVSTSRYSYIHWYQQKPGQPPKLLIKYASNLESGVPSRFSGSGSGTDFTLNIHPLEPEDFATYYCHHSWEIPLTFGQGTKLEIKR

>  <IC50 (Relative to Chimera)>
0.91 relative to Chimera

$$$$
